Numbers sourced from paper PMC4277729.

SYSTEM: chxEH (Gallus gallus)
ASSAY METHOD TEXT: FRET-based competitive displacement assay with reporter ligand ACPU
MEASURED PARAMETER: Kd (nM)
Give bare numbers, in nM.

get_value(item= O=C(NC1CCN(C(=O)Cc2cc(=O)oc3cc(O)ccc23)CC1)NC12CC3CC(CC(C3)C1)C2 , readout=Kd) returns 0.283
